System: cch-evoked bronchoconstriction
Assay: Experimental bronchospasm (carbachol-induced bronchoconstriction, Konzett & Roessler)
Assay type: in vivo, Male CD Sprague Dawley rats
Conditions: iv; rat, dose 10 μg/Kg intratracheal, 1 hour after administration, carbachol 80 μg/kg i.v.; read-out: Inhibition % (±s.e. mean) of cch-evoked bronchoconstriction
Readings of inhibition in vivo at 0.01 mg/kg for the listed compounds

C[C@@H]1CNCCN1c1ccc(NC(=O)c2cccc(CNc3ncc(-c4ccnc(N)n4)c4c3CCO4)c2)nc1: 74.8%
COc1ccc(NC(=O)c2cccc(CNc3ncc(-c4ccnc(N)n4)c4c3CCO4)c2)nc1: 3.1%
CNCCOc1ccc(NC(=O)c2cccc(CNc3ncc(-c4ccnc(N)n4)c4c3CCO4)c2)nc1: 76.6%

Could you now consider this next compound?
Inquiry: Fill in reported inhibition in vivo at 0.01 mg/kg for this entry: CN1CCN(C)C(COc2ccc(NC(=O)c3cccc(CNc4ncc(-c5ccnc(N)n5)c5c4CCO5)c3)nc2)C1 (single isomer, unassigned)
Reply text: 69.7%

----------
Molecular target: Rho kinase 1 (ROCK1) (Homo sapiens, UniProt Q13464)
Sequence (Q13464 whole entry): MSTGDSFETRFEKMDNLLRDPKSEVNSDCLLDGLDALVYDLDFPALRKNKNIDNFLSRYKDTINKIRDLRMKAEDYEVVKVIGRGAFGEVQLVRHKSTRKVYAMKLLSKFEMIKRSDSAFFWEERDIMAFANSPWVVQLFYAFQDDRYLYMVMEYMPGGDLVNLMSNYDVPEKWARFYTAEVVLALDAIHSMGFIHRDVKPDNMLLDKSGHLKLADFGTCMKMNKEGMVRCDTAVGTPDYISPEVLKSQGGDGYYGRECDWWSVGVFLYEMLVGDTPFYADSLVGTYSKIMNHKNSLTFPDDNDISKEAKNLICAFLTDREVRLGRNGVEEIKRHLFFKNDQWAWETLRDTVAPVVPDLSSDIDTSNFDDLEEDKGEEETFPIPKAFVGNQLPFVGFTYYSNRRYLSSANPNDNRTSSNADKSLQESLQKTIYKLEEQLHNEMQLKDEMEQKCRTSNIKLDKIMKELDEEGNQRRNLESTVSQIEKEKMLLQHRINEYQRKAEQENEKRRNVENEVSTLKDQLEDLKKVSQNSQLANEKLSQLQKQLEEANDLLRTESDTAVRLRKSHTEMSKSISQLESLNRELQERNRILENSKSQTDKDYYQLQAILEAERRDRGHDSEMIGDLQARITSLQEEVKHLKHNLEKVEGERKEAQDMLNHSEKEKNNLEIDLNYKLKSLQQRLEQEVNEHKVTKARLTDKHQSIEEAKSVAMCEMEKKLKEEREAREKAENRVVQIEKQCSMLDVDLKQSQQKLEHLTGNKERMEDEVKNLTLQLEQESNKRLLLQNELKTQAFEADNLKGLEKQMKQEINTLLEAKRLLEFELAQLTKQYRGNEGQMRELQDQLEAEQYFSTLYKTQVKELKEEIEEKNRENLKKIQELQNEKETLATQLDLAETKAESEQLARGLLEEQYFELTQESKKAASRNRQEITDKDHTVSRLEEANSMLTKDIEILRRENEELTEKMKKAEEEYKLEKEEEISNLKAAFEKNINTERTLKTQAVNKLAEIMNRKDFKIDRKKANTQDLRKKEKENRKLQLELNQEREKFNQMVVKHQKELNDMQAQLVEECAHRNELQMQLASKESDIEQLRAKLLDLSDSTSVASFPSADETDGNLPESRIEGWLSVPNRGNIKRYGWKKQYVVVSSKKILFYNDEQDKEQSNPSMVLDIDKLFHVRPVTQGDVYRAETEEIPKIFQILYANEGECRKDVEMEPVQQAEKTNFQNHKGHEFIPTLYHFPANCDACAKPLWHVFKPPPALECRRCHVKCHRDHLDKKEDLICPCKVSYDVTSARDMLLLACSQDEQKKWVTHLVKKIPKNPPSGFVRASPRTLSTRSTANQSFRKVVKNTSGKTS
pKi: −log10 of the molar value.
OBSERVED_PROPERTY: pKi

See these solved cases before continuing.
Nc1nccc(-c2cnc(NCc3ccccc3)c3c2OCC3)n1 [Example C, reference compound]: < 7.52
CN1C[C@H]2C[C@@H]1CN2c1ccc(NC(=O)c2cccc(CNc3ncc(-c4ccnc(N)n4)c4c3CCO4)c2)nc1 [Example 74]: ≥ 8.52
Nc1nccc(-c2cnc(NCc3cccc(C(=O)Nc4ccc(OC[C@]5(F)CCNC5)cn4)c3)c3c2OCC3)n1 [Example 79]: ≥ 8.52
CN(C)CCC(=O)N1CCN(c2ccc(NC(=O)c3cccc(CNc4ncc(-c5ccnc(N)n5)c5c4CCO5)c3)nc2)CC1 [Example 66]: ≥ 8.52
CN(C)CCN(C)c1ccc(NC(=O)c2cccc(CNc3ncc(-c4ccnc(N)n4)c4c3CCO4)c2)nc1 [Example 75]: ≥ 8.52
Nc1nccc(-c2cnc(NCc3cccc(C(=O)Nc4ccc(N5C[C@H]6C[C@@H]5CN6)cn4)c3)c3c2OCC3)n1 [Example 68]: ≥ 8.52

Inquiry: Report the value of pKi obtained on Rho kinase 1 (ROCK1) (Homo sapiens, UniProt Q13464) for CNC(=O)c1cccc(CNc2ncc(-c3ccnc(N)n3)c3c2OCC3)c1 [Example B, reference compound] .
Reply text: < 7.52

Inquiry: Report the value of pKi obtained on Rho kinase 1 (ROCK1) (Homo sapiens, UniProt Q13464) for C[C@@H]1CN[C@@H](C)CN1c1ccc(NC(=O)c2cccc(CNc3ncc(-c4ccnc(N)n4)c4c3CCO4)c2)nc1 [Example 67] .
Reply text: ≥ 8.52

Inquiry: Report the value of pKi obtained on Rho kinase 1 (ROCK1) (Homo sapiens, UniProt Q13464) for CN1CC[C@@H]1COc1ccc(NC(=O)c2cccc(CNc3ncc(-c4ccnc(N)n4)c4c3CCO4)c2)nc1 [Example 81] .
Reply text: ≥ 8.52

Inquiry: Report the value of pKi obtained on Rho kinase 1 (ROCK1) (Homo sapiens, UniProt Q13464) for Nc1nccc(-c2cnc(NCc3cccc(C(=O)Nc4ccc(N5CCNCC5)cn4)c3)c3c2OCC3)n1 [Example 53] .
Reply text: ≥ 8.52

Inquiry: Report the value of pKi obtained on Rho kinase 1 (ROCK1) (Homo sapiens, UniProt Q13464) for COc1ccc(NC(=O)c2cccc(CNc3ncc(-c4ccnc(N)n4)c4c3CCO4)c2)nc1 [Example 51] .
Reply text: ≥ 8.52

Inquiry: Report the value of pKi obtained on Rho kinase 1 (ROCK1) (Homo sapiens, UniProt Q13464) for CN(C)CCNc1ccc(NC(=O)c2cccc(CNc3ncc(-c4ccnc(N)n4)c4c3CCO4)c2)nc1 [Example 77] .
Reply text: ≥ 8.52

Inquiry: Report the value of pKi obtained on Rho kinase 1 (ROCK1) (Homo sapiens, UniProt Q13464) for CN(C)CCOc1ccc(NC(=O)c2cccc(CNc3ncc(-c4ccnc(N)n4)c4c3CCO4)c2)nc1 [Example 52] .
Reply text: ≥ 8.52

Inquiry: Report the value of pKi obtained on Rho kinase 1 (ROCK1) (Homo sapiens, UniProt Q13464) for CNC(=O)c1cccc(CNc2ncc(-c3ccncn3)c3c2CCO3)c1 [Example A, reference compound] .
Reply text: < 7.52
